- target-system: Dihydrofolate reductase (Mus musculus, UniProt P00375)
- Sequence (P00375 whole entry): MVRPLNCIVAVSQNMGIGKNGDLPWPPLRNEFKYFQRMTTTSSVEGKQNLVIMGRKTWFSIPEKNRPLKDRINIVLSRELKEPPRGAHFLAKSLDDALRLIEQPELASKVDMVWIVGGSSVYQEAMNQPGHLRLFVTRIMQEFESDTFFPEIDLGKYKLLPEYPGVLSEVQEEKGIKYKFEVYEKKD
- test-method-notes: Tested for inhibition of dihydrofolate reductase enzyme from mouse
quantity-name: Ki (pM)
The response must be a number in pM with no trailing unit.

Which Ki value is on record for "Nc1nc(N)c2nc(CNc3ccc(C(=O)N[C@@H](CCC(=O)O)C(=O)O)cc3)cnc2n1" ?
2.3

----------
- test-method-notes: Influx velocity of the compound
- Type: ADME
// reported Vmax per item

CC(Cc1cnc2nc(N)nc(N)c2n1)c1ccc(C(=O)NC(CCC(=O)O)C(=O)O)cc1 (stereo unspecified) ... 8.02 nM/min/g
CN(Cc1cnc2nc(N)nc(N)c2n1)c1ccc(C(=O)N[C@@H](CCC(=O)O)C(=O)O)cc1 [METHOTREXATE] ... 7.77 nM/min/g
CCC(Cc1cnc2nc(N)nc(N)c2n1)c1ccc(C(=O)NC(CCC(=O)O)C(=O)O)cc1 (stereo unspecified) ... 7.8 nM/min/g

Which Vmax value is on record for "Nc1nc(N)c2nc(CCc3ccc(C(=O)N[C@@H](CCC(=O)O)C(=O)O)cc3)cnc2n1" ?
8.13 nM/min/g

Which Vmax value is on record for "Nc1nc(N)c2nc(CNc3ccc(C(=O)N[C@@H](CCC(=O)O)C(=O)O)cc3)cnc2n1" ?
7.83 nM/min/g

Which Vmax value is on record for CC(C)(Cc1cnc2nc(N)nc(N)c2n1)c1ccc(C(=O)NC(CCC(=O)O)C(=O)O)cc1 (stereo unspecified) ?
8.31 nM/min/g

----------
// reported MST per item
- System: L1210
- test-method-notes: Antitumor activity expressed as mean survival time against L1210 leukemia cells in mice after sc administration at dose 15 mg/kg
- cond: route subcutaneous
The response must be a number in days with no trailing unit.

As a guide, the following entries are already answered.
CCC(Cc1cnc2nc(N)nc(N)c2n1)c1ccc(C(=O)NC(CCC(=O)O)C(=O)O)cc1 (stereo not given) ... 20.5
CN(Cc1cnc2nc(N)nc(N)c2n1)c1ccc(C(=O)N[C@@H](CCC(=O)O)C(=O)O)cc1 [METHOTREXATE] ... 16.6
CC(C)(Cc1cnc2nc(N)nc(N)c2n1)c1ccc(C(=O)NC(CCC(=O)O)C(=O)O)cc1 (stereo not given) ... 15.9
CC(Cc1cnc2nc(N)nc(N)c2n1)c1ccc(C(=O)NC(CCC(=O)O)C(=O)O)cc1 (stereo not given) ... 22.1

Now turn to the next compound.
Which MST value is on record for "Nc1nc(N)c2nc(CCc3ccc(C(=O)N[C@@H](CCC(=O)O)C(=O)O)cc3)cnc2n1" ?
18.4

----------
- Test system: L1210
- test-method-notes: Minimum inhibitory concentration of compound was tested for growth inhibition of L1210 cells
- Assay type: functional
- cond: Mus musculus
quantity-name: MIC50 (nM)
The response must be a number in nM with no trailing unit.

As a guide, the following entries are already answered.
CN(Cc1cnc2nc(N)nc(N)c2n1)c1ccc(C(=O)N[C@@H](CCC(=O)O)C(=O)O)cc1 [METHOTREXATE] ... 2.71
Nc1nc(N)c2nc(CCc3ccc(C(=O)N[C@@H](CCC(=O)O)C(=O)O)cc3)cnc2n1 ... 0.61
CC(C)(Cc1cnc2nc(N)nc(N)c2n1)c1ccc(C(=O)NC(CCC(=O)O)C(=O)O)cc1 (stereo not given) ... 0.58
CCC(Cc1cnc2nc(N)nc(N)c2n1)c1ccc(C(=O)NC(CCC(=O)O)C(=O)O)cc1 (stereo not given) ... 0.55

Now turn to the next compound.
Which MIC50 value is on record for CC(Cc1cnc2nc(N)nc(N)c2n1)c1ccc(C(=O)NC(CCC(=O)O)C(=O)O)cc1 (stereo not given) ?
0.51
